Cited source for all entries: patent US10457707B2

Notes on MIC obtained with Streptococcus pneumoniae, R6.
*1 amine or outer side, *2 acyl side, *3 side chain or, on linkers, in order; H or OH if unused. Where a SMILES comes first, the peptide text is derived from it. Bridges are numbered along the chain shown (N, C = ends). [ ]: non-standard residue; d: D form. The star is where a group is joined. Phe(3,5-F2) = N[C@@H](Cc1cc(F)cc(F)c1)C(=O)O; Pro(4R-Me) = C[C@H]1CN[C@H](C(=O)O)C1; NH(3,4-Me2-phenyl) = Cc1ccc(N*)cc1C; Hyp = O=C(O)[C@@H]1C[C@@H](O)CN1; NH(4-Et-phenyl) = CCc1ccc(N*)cc1; NMeT = CN[C@H](C(=O)O)[C@@H](C)O; aThr = C[C@H](O)[C@H](N)C(=O)O; Pip = O=C(O)[C@@H]1CCCCN1; X1 = N#Cc1cc(N*)ccc1F; CO = O=C([*:1])[*:2]
measurementType: MIC

{"columns": ["compound", "valueReported"],
 "data": [
  ["C[C@@H]1C[C@H]2C(=O)O[C@@H](C)[C@H](NC(=O)[C@H](Cc3cc(F)cc(F)c3)NC(=O)Nc3ccc(F)c(C#N)c3)C(=O)N3CCC[C@H]3C(=O)N3CCCC[C@H]3C(=O)N[C@@H](C)C(=O)N2C1 [Compound 324] ({X1-CO}-[Phe(3,5-F2)][aThr]P[Pip]A[Pro(4R-Me)]; ester 2-C)", "0.625 µM"],
  ["CCc1ccc(NC(=O)N[C@@H](Cc2cc(F)cc(F)c2)C(=O)N[C@@H]2C(=O)N3CCC[C@H]3C(=O)N(C)[C@@H]([C@@H](C)O)C(=O)N[C@@H](C)C(=O)N3C[C@H](C)C[C@H]3C(=O)O[C@H]2C)cc1 [Compound 42] ({NH(4-Et-phenyl)-CO}-[Phe(3,5-F2)][aThr]P[NMeT]A[Pro(4R-Me)]; ester 2-C)", "0.01 µM"],
  ["Cc1ccc(NC(=O)N[C@@H](Cc2cc(F)cc(F)c2)C(=O)N[C@@H]2C(=O)N3C[C@H](O)C[C@H]3C(=O)N3CCCC[C@H]3C(=O)N[C@@H](C)C(=O)N3C[C@H](C)C[C@H]3C(=O)O[C@H]2C)cc1C [Compound 212] ({NH(3,4-Me2-phenyl)-CO}-[Phe(3,5-F2)][aThr][Hyp][Pip]A[Pro(4R-Me)]; ester 2-C)", "0.002 µM"]
]}
